Origin of the recorded values: patent US11225505B2

tested on: Klebsiella pneumoniae FADDI-KP032; format: cell-based; conditions: K. pneumoniae FADDI-KP032; CAMHB broth microdilution
Where a SMILES comes first, the peptide text is derived from it. Bridges are numbered along the chain shown (N, C = ends). [ ]: non-standard residue; d: D form. The star is where a group is joined. X14 = O=C(c1ccc(C(F)(F)F)cn1)*; X52 = O=C(c1nc2ccccc2s1)*; Dab = NCC[C@H](N)C(=O)O; Abu = CC[C@H](N)C(=O)O; Dap = NC[C@H](N)C(=O)O
parameter: Minimum inhibitory concentration

CC[C@@H]1NC(=O)[C@@H](CC(C)C)NC(=O)[C@H](CCN)NC(=O)[C@@H](NC(=O)[C@H](CN)NC(=O)[C@@H](NC(=O)[C@H](CCN)NC(=O)c2nc3ccccc3s2)[C@@H](C)O)CCNC(=O)[C@H]([C@@H](C)O)NC(=O)[C@H](CCN)NC(=O)[C@H](CCN)NC1=O [Compound 70] (X52-[Dab]T[Dap][Dab][Dab][dL][Abu][Dab][Dab]T; lactam 4-C) | <0.125 mg/L

Can you look up the measured Minimum inhibitory concentration of CC[C@@H]1NC(=O)[C@@H](CC(C)C)NC(=O)[C@H](CCN)NC(=O)[C@@H](NC(=O)[C@H](CN)NC(=O)[C@@H](NC(=O)[C@H](CCN)NC(=O)c2ccc(C(F)(F)F)cn2)[C@@H](C)O)CCNC(=O)[C@H]([C@@H](C)O)NC(=O)[C@H](CCN)NC(=O)[C@H](CCN)NC1=O [Compound 38] (X14-[Dab]T[Dap][Dab][Dab][dL][Abu][Dab][Dab]T; lactam 4-C) for me?
<0.125 mg/L

====

Listed next: entries and their corresponding Minimum inhibitory concentration.
system: Pseudomonas aeruginosa ATCC 27853; format: cell-based; conditions: ATCC 27853
Where a SMILES comes first, the peptide text is derived from it. Bridges are numbered along the chain shown (N, C = ends). [ ]: non-standard residue; d: D form. The star is where a group is joined. X4 = O=C(c1cncc(C(F)(F)F)c1)*; X27 = O=C(c1sc2ccccc2c1Cl)*; X62 = O=C(c1cc(Br)c(Br)s1)*; X54 = O=C(c1cccc(Cl)n1)*; X7 = O=C(c1nc2ccccc2o1)*; Dab = NCC[C@H](N)C(=O)O; X10 = O=C(c1cc(Br)cs1)*; Abu = CC[C@H](N)C(=O)O; Dap = NC[C@H](N)C(=O)O
Form entry: value (mg/L) — number only.

CC[C@@H]1NC(=O)[C@@H](CC(C)C)NC(=O)[C@H](CCN)NC(=O)[C@@H](NC(=O)[C@H](CN)NC(=O)[C@@H](NC(=O)[C@H](CCN)NC(=O)c2nc3ccccc3o2)[C@@H](C)O)CCNC(=O)[C@H]([C@@H](C)O)NC(=O)[C@H](CCN)NC(=O)[C@H](CCN)NC1=O [Compound 74] (X7-[Dab]T[Dap][Dab][Dab][dL][Abu][Dab][Dab]T; lactam 4-C) | 0.25

Can you look up the measured Minimum inhibitory concentration of CC(C)C[C@H]1NC(=O)[C@H](CCN)NC(=O)[C@@H](NC(=O)[C@H](CN)NC(=O)[C@@H](NC(=O)[C@H](CCN)NC(=O)c2sc3ccccc3c2Cl)[C@@H](C)O)CCNC(=O)[C@H]([C@@H](C)O)NC(=O)[C@H](CCN)NC(=O)[C@H](CCN)NC(=O)[C@H]([C@@H](C)O)NC1=O [Compound 68] (X27-[Dab]T[Dap][Dab][Dab][dL]T[Dab][Dab]T; lactam 4-C) for me?
0.25

Can you look up the measured Minimum inhibitory concentration of CC[C@@H]1NC(=O)[C@@H](CC(C)C)NC(=O)[C@H](CCN)NC(=O)[C@@H](NC(=O)[C@H](CN)NC(=O)[C@@H](NC(=O)[C@H](CCN)NC(=O)c2cc(Br)cs2)[C@@H](C)O)CCNC(=O)[C@H]([C@@H](C)O)NC(=O)[C@H](CCN)NC(=O)[C@H](CCN)NC1=O [Compound 88] (X10-[Dab]T[Dap][Dab][Dab][dL][Abu][Dab][Dab]T; lactam 4-C) for me?
0.5

Can you look up the measured Minimum inhibitory concentration of CC[C@@H]1NC(=O)[C@@H](CC(C)C)NC(=O)[C@H](CCN)NC(=O)[C@@H](NC(=O)[C@H](CN)NC(=O)[C@@H](NC(=O)[C@H](CCN)NC(=O)c2cc(Br)c(Br)s2)[C@@H](C)O)CCNC(=O)[C@H]([C@@H](C)O)NC(=O)[C@H](CCN)NC(=O)[C@H](CCN)NC1=O [Compound 83] (X62-[Dab]T[Dap][Dab][Dab][dL][Abu][Dab][Dab]T; lactam 4-C) for me?
0.25

Can you look up the measured Minimum inhibitory concentration of CC[C@@H]1NC(=O)[C@@H](CC(C)C)NC(=O)[C@H](CCN)NC(=O)[C@@H](NC(=O)[C@H](CN)NC(=O)[C@@H](NC(=O)[C@H](CCN)NC(=O)c2cccc(Cl)n2)[C@@H](C)O)CCNC(=O)[C@H]([C@@H](C)O)NC(=O)[C@H](CCN)NC(=O)[C@H](CCN)NC1=O [Compound 43] (X54-[Dab]T[Dap][Dab][Dab][dL][Abu][Dab][Dab]T; lactam 4-C) for me?
0.25

Can you look up the measured Minimum inhibitory concentration of CC[C@@H]1NC(=O)[C@@H](CC(C)C)NC(=O)[C@H](CCN)NC(=O)[C@@H](NC(=O)[C@H](CN)NC(=O)[C@@H](NC(=O)[C@H](CCN)NC(=O)c2cncc(C(F)(F)F)c2)[C@@H](C)O)CCNC(=O)[C@H]([C@@H](C)O)NC(=O)[C@H](CCN)NC(=O)[C@H](CCN)NC1=O [Compound 20] (X4-[Dab]T[Dap][Dab][Dab][dL][Abu][Dab][Dab]T; lactam 4-C) for me?
0.5

====

system: Acinetobacter baumannii FADDI-AB030; test: microbe, parasite or virus in culture; type: cell-based; conditions: FADDI-AB030
Where a SMILES comes first, the peptide text is derived from it. Bridges are numbered along the chain shown (N, C = ends). [ ]: non-standard residue; d: D form. The star is where a group is joined. X55 = O=C(c1ccc(-c2ccc(Cl)nc2)cc1)*; X49 = O=C(c1cnc(C(F)(F)F)nc1)*; X22 = Cn1c(C(=O)*)cc2ccccc21; X42 = O=C(c1nc2ccccc2[nH]1)*; X2 = O=C(c1cc(Cl)cc(Cl)n1)*; X36 = O=C(c1ncc(Br)cc1Br)*; Dab = NCC[C@H](N)C(=O)O; Abu = CC[C@H](N)C(=O)O; Dap = NC[C@H](N)C(=O)O
Listed next: entries and their corresponding Minimum inhibitory concentration.

CC[C@@H]1NC(=O)[C@@H](CC(C)C)NC(=O)[C@H](CCN)NC(=O)[C@@H](NC(=O)[C@H](CN)NC(=O)[C@@H](NC(=O)[C@H](CCN)NC(=O)c2cc(Cl)cc(Cl)n2)[C@@H](C)O)CCNC(=O)[C@H]([C@@H](C)O)NC(=O)[C@H](CCN)NC(=O)[C@H](CCN)NC1=O [Compound 18] (X2-[Dab]T[Dap][Dab][Dab][dL][Abu][Dab][Dab]T; lactam 4-C) | 0.5 µg/mL
CC(C)C[C@H]1NC(=O)[C@H](CCN)NC(=O)[C@@H](NC(=O)[C@H](CN)NC(=O)[C@@H](NC(=O)[C@H](CCN)NC(=O)c2cc3ccccc3n2C)[C@@H](C)O)CCNC(=O)[C@H]([C@@H](C)O)NC(=O)[C@H](CCN)NC(=O)[C@H](CCN)NC(=O)[C@H]([C@@H](C)O)NC1=O [Compound 64] (X22-[Dab]T[Dap][Dab][Dab][dL]T[Dab][Dab]T; lactam 4-C) | 1 µg/mL
CC(C)C[C@H]1NC(=O)[C@H](CCN)NC(=O)[C@@H](NC(=O)[C@H](CN)NC(=O)[C@@H](NC(=O)[C@H](CCN)NC(=O)c2ccc(-c3ccc(Cl)nc3)cc2)[C@@H](C)O)CCNC(=O)[C@H]([C@@H](C)O)NC(=O)[C@H](CCN)NC(=O)[C@H](CCN)NC(=O)[C@H]([C@@H](C)O)NC1=O [Compound 16] (X55-[Dab]T[Dap][Dab][Dab][dL]T[Dab][Dab]T; lactam 4-C) | 8 µg/mL
CC[C@@H]1NC(=O)[C@@H](CC(C)C)NC(=O)[C@H](CCN)NC(=O)[C@@H](NC(=O)[C@H](CN)NC(=O)[C@@H](NC(=O)[C@H](CCN)NC(=O)c2nc3ccccc3[nH]2)[C@@H](C)O)CCNC(=O)[C@H]([C@@H](C)O)NC(=O)[C@H](CCN)NC(=O)[C@H](CCN)NC1=O [Compound 47] (X42-[Dab]T[Dap][Dab][Dab][dL][Abu][Dab][Dab]T; lactam 4-C) | 0.25 µg/mL
CC[C@@H]1NC(=O)[C@@H](CC(C)C)NC(=O)[C@H](CCN)NC(=O)[C@@H](NC(=O)[C@H](CN)NC(=O)[C@@H](NC(=O)[C@H](CCN)NC(=O)c2ncc(Br)cc2Br)[C@@H](C)O)CCNC(=O)[C@H]([C@@H](C)O)NC(=O)[C@H](CCN)NC(=O)[C@H](CCN)NC1=O [Compound 22] (X36-[Dab]T[Dap][Dab][Dab][dL][Abu][Dab][Dab]T; lactam 4-C) | 0.5 µg/mL

Can you look up the measured Minimum inhibitory concentration of CC[C@@H]1NC(=O)[C@@H](CC(C)C)NC(=O)[C@H](CCN)NC(=O)[C@@H](NC(=O)[C@H](CN)NC(=O)[C@@H](NC(=O)[C@H](CCN)NC(=O)c2cnc(C(F)(F)F)nc2)[C@@H](C)O)CCNC(=O)[C@H]([C@@H](C)O)NC(=O)[C@H](CCN)NC(=O)[C@H](CCN)NC1=O [Compound 45] (X49-[Dab]T[Dap][Dab][Dab][dL][Abu][Dab][Dab]T; lactam 4-C) for me?
0.5 µg/mL
